Data credit: patent US20210061861A1

target: D-VEGF-A (8-109), synthetic mirror-image protein (Homo sapiens (Human)) (UniProt P15692); test: competitive phage ELISA; L-peptidic compound on D-VEGF-A
Sequence (P15692 214-315 limits assumed, form in doubt): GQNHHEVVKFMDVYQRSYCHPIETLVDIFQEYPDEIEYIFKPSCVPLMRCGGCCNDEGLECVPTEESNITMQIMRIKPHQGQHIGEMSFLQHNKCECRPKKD
readout-label: IC50 (µM)
Hi! Could you send only the number? It should be in µM, unit omitted.

Example entries begin here.
{"columns": ["binder", "IC50, µM"],
 "data": [
  ["1.1 (-kaha, adfl) (L-peptidic) (designed binder) TIDQWLLKNAKEDAIAELKKAGITEDHVFNFINHAPYVSHVNGLKNAILADFL", 0.012],
  ["1.1 (-kaha, GehGsp) (L-peptidic) (designed binder) TIDQWLLKNAKEDAIAELKKAGITEDHVFNFINHAPYVSHVNGLKNAILGEHGSP", 0.014]
]}

Moving on to another binder below.
GET /value?item= 1.1 (-kaha, edyl) (L-peptidic) (designed binder) TIDQWLLKNAKEDAIAELKKAGITEDHVFNFINHAPYVSHVNGLKNAILEDYL &field=IC50 returns 0.005
